system: M19-MEL melanoma; experiment: NCI tumour cell line growth inhibition, 48 h
The following molecules are listed with their measured TGI values.
measuredProperty: TGI

Cc1ccc(NC(=O)CC/C(CC(=O)C(C)(C)C)=N\Nc2ccc([N+](=O)[O-])cc2[N+](=O)[O-])cc1C ... > 100 µM
CN(C)CCNC(=O)c1cccc2ncc(-c3ccccc3)nc12 ... 29.5 µM
C=C1C(=O)OC2C1C(OC(=O)/C(C)=C\C)CC1(CO1)C1C(O)C=C(C)C21O (stereo not given) ... 25.4 µM
Nc1ccc2c(c1)Oc1c(F)c(F)cc3c(=O)c(C(=O)O)cn-2c13 ... > 100 µM
Cc1ccc(/C=C(\C#N)c2ccccc2)cc1 ... > 100 µM
CCN(CC)CC(C)(C)C(=O)/C=C/c1ccc(/C=C/C(=O)C(C)(C)CN(CC)CC)cc1 ... 4.23 µM
COc1cc(CC(C(=O)O)C(=O)O)c(OC)cc1CC(C(=O)O)C(=O)O ... > 100 µM
N#CCCN(CCC#N)c1ccc(/C=C2\N=C(c3cc([N+](=O)[O-])ccc3Cl)N(NC(=O)CC(=O)Nc3ccccc3Cl)C2=O)cc1 ... > 100 µM
[O-][n+]1c(-c2ccccc2)c2nc3ccccc3nc2c2ccccc21 ... > 100 µM
O=C(O)c1nccnc1C(=O)O ... > 100 µM

----------
The following compounds are listed with their measured TGI values.
test system: SW-620 colon; assay: NCI tumour cell line growth inhibition, 48 h
Where a SMILES comes first, the peptide text is derived from it. [ ]: non-standard residue; d: D form. 2Nal = N[CH](Cc1ccc2ccccc2c1)C(=O)O
measuredProperty: TGI

O=C(O)CC1CC=C[C@H]2c3cc4c(cc3C(=O)NC12)OCO4 (stereo not given in full) ... > 75 µM
OC1CCC[C@@H]1Sc1ccccc1 (stereo not given in full) ... > 100 µM
CC(=O)Oc1c(C)c2c(c3ccccc13)OC(C)(C)C2 ... 35.8 µM
O=C1NC(S(=O)(=O)O)=NNC12c1ccccc1-c1ccccc12 ... > 10 µM
Cc1cc(NNC(=O)c2ccccc2O)nc(Nc2nc3ccccc3o2)n1 ... 17.8 µM
COC(=O)C(C(=O)C(=O)Nc1ccc(OC)cc1[N+](=O)[O-])c1nc2cc(C)c(C)cc2[nH]c1=O (stereo not given) ... > 100 µM
COC(=O)C1=C(C(=O)OC)C2OC1c1cc3ccccc3cc12 ... 3.96 µM
O=C(O)c1ccc(Nc2nc3cc(C(F)(F)F)ccc3nc2-c2ccccc2)cc1 ... 30.9 µM
O=C(Nc1nc(C23CC4CC(CC(C4)C2)C3)cs1)c1cc2c(ccc3ccccc32)oc1=O ... > 100 µM
O=C(O)CCC(NC(=O)c1ccc(CNc2nc3ccccc3nc2C(=O)O)cc1)C(=O)O (stereo not given) ... > 100 µM
Cc1cc(C)n(C(=O)CSc2nnc(SCC(=O)n3nc(C)cc3C)s2)n1 ... > 100 µM
COC(=O)C1C(C(=O)OC)C1(Br)CBr (stereo not given) ... > 100 µM
Nc1nc(N)c(N=Nc2ccc(C(=O)O)c(O)c2)c(N)n1 ... > 100 µM
CCCCN=C1OCc2[nH][nH]c(=O)c21 ... > 100 µM
O=C(O)C12C3CCC(O3)C1(C(=O)O)C1CCC2O1 (stereo not given) ... > 100 µM
Cc1ccc(C)n1-n1c(-c2ccccc2)n[nH]c1=O ... > 100 µM
C[C@@H]1CC[C@@H]2[C@@H](C)C[C@H]3[C@@H]4C(C)(C)OC(=O)[C@]4(C)C(=O)[C@@]23C1=O ... > 100 µM
CC(NC(NC(C)C12CC3CC(CC(C3)C1)C2)=C(C(Cl)=C(Cl)Cl)[N+](=O)[O-])C12CC3CC(CC(C3)C1)C2 (stereo not given) ... 62.1 µM
CSc1nc(NC2OC(COC(C)=O)C(OC(C)=O)C(OC(C)=O)C2OC(C)=O)c(N=C(C)C(C)=O)c(=O)n1C (stereo not given) ... > 100 µM
CC(C)C(NC(=O)C(CCCCN)NC(=O)C(Cc1c[nH]c2ccccc12)NC(=O)C(Cc1ccc(O)cc1)NC(=O)C(CS)NC(=O)C(N)Cc1ccc2ccccc2c1)C(=O)NC(CS)C(=O)NC(C(N)=O)C(C)O (stereo not given) (H-[2Nal]CYWKVCT-NH2; configuration not given here) ... > 100 µM
COc1ccc(CNC(=O)[C@H](Cc2ccc(O)cn2)NC(C)=O)cc1 ... > 100 µM
COC(=O)c1c2c(cc3c1CC1(Cc4cc5c(cc4C1)CCC5)C3)CCC2 ... > 100 µM
O=C1[C@H](Cl)[C@H]2c3cc4ccccc4nc3Oc3ccccc3N12 ... > 100 µM
CCN(CC)CCNc1ccc(C)c2sc3ccccc3c(=O)c12 ... 4.35 µM
Cc1ccc(-c2cc(-c3c(C)nn(C)c(=O)c3N)[nH]n2)cc1 ... > 100 µM

----------
The following compounds are listed with their measured TGI values.
tested on: SF-268 CNS; experiment: NCI tumour cell line growth inhibition, 48 h
measuredProperty: TGI

CCN(CC)CCNc1ccc2nnn3c4ccccc4c(=O)c1c23 ... 19.2 µM
O=C(c1ccccc1)c1c(CC(O)c2ccccc2)n(C(=O)c2ccccc2)c2ccccc12 (stereo not given) ... > 100 µM
O=[N+]([O-])c1sc2ccc(Cl)cc2c1Nc1ccc(Cl)cc1 ... > 100 µM
O=c1c(-c2ccc(O)cc2)coc2cc(OC3OC(CO)C(O)C(O)C3O)cc(O)c12 (stereo not given) ... > 100 µM
CCCCCCCCCCCCCCCC(=O)OC1C(O)C(CO)OC(OC)C1NC(=O)N(CCCl)N=O (stereo not given) ... 15.5 µM
CC[C@@H](/C=C\CCC1(C[C@@H](N)CCC=C(C)C)OCCO1)O[Si](C(C)C)(C(C)C)C(C)C ... 39.9 µM
C=CCc1cccc(/C=N\N=C(/N)NO)c1O ... > 100 µM
O=C1NC(S(=O)(=O)O)=NNC12c1ccccc1-c1ccccc12 ... > 10 µM
CCCCCCCCCCCCCC(=O)OCC1OC(n2cc(F)c(=O)[nH]c2=O)C(N)C(OC(=O)CCCCCCCCCCCCC)C1O (stereo not given) ... > 100 µM
C=C1CCC2C3(C)COC(c4ccc(Cl)cc4)OC3CCC2(C)C1/C=C/C1=CCOC1=O (stereo not given) ... > 100 µM

----------
test system: DLD-1 colon; experiment: NCI tumour cell line growth inhibition, 48 h
measuredProperty: TGI

NC(=Nc1nc(-c2ccccn2)cc2ccccc12)c1ccccn1 ... 0.378 µM
Cc1c2c(ccc3ccccc32)c[n+]2ccccc12 ... > 100 µM
O=c1nc2sc3ccc4ccccc4c3n2[nH]c1=O ... > 100 µM
O=C(O)CC1CC=C[C@H]2c3cc4c(cc3C(=O)NC12)OCO4 (stereo partly specified) ... > 75 µM
C=C1C(=O)OC2C1C(OC(=O)/C(C)=C\C)CC1(CO1)C1C(O)C=C(C)C21O (stereo unspecified) ... 7.8 µM
Nc1ccc2c(c1)Oc1c(F)c(F)cc3c(=O)c(C(=O)O)cn-2c13 ... > 100 µM

----------
test system: LOX IMVI melanoma; assay: NCI tumour cell line growth inhibition, 48 h; in the data active = GI50 below about 0.43 µM; inactive = the rest
Outcome codes: active, inactive

COc1cc(-c2ccc(NC(=O)NC3CC3)c(OC)c2)ccc1NC(=O)NC1CC1 ... inactive
CSc1ccc(C2=NN(C(C)=O)C(c3ccc(F)cc3)C2)cc1 (stereo not given) ... inactive
O=C(NN1C(=O)CSC12CCCC2)C(O)c1ccccc1 (stereo not given) ... inactive
Cc1nnc(-c2ccc(C)c(-c3ccc(C(=O)NCc4ccc(Cl)cc4)cc3)c2)o1 ... inactive
CC[C@@H](C)Nc1cc(C(=O)NC2CC3CCC(C2)N3c2ccc(C(=O)C3CC3)cn2)c(C)cc1C(N)=O (stereo not given in full) ... active
N#Cc1c(N)nc(N2CCSCC2)c(C#N)c1-c1ccc(O)cc1 ... inactive
CCCN1C(=O)/C(=C/c2ccc(O)cc2)SC1=Nc1ccc(OC)cc1 ... inactive
CCOC(=O)c1csc(NC(=O)COc2cccc(/C=C3\CSc4ccccc4C3=O)c2)n1 ... active
CCCCCCN(C)Cc1ccc(OCCOc2ccc(CN(C)CCCCCC)cc2)cc1 ... inactive
CCOC(=O)c1cc(-c2ccc(OC)c(OC)c2)[nH]c1N/N=C/c1c(Cl)cccc1Cl ... inactive

----------
The following compounds are listed with their measured TGI values.
test system: HOP-92 NSCLC; assay: NCI tumour cell line growth inhibition, 48 h
measuredProperty: TGI (µM)

CC(C)(C)NC/C(=C\c1ccccc1)C(=O)c1ccccc1 ... 6.56
CC(=O)Oc1c(C)c2c(c3ccccc13)OC(C)(C)C2 ... 31.9
O=C(c1ccccc1)c1c(CC(O)c2ccccc2)n(C(=O)c2ccccc2)c2ccccc12 (stereo not given) ... 98.9
CC[C@]12C=CCN3CC[C@@]4(c5ccc(OC)cc5N(C)[C@H]4[C@@](O)(C(=O)OC)[C@@H]1OC(=O)CCC(=O)N[C@H](Cc1c[nH]c4ccccc14)C(=O)OC)[C@@H]32 ... 24.4
Cn1nc(-c2ccccc2)c(C(=O)/C=C/c2ccc(F)cc2)c(N2CCOCC2)c1=O ... 36.4
O=C(N/N=C(/COc1cccc(Cl)c1)N=Cc1cccnc1)c1ccncc1 ... 89.7
